biological target: OXE receptor (Homo sapiens); construct: Human granulocytes (≥95% neutrophils) are prepared from whole blood; endogenous in cells; host or cells: human granulocytes (≥95% neutrophils) from whole blood; assay: Calcium mobilization in human granulocytes (inhibition of 5-oxo-ETE-induced calcium mobilization); assay type: cell-based; settings: inhibition of calcium mobilization induced by 5-oxo-ETE (10 nM) in human granulocytes; bracketed figure in cell = n; read-out: IC50
ASSAY_ENDPOINT: pIC50
API: returns pIC50 as number; meaning -log10 of concentration in mol/L.

Some molecules with known pIC50 results, for comparison:
>  <MOLECULE>
CC(O)CCCCc1c(C(=O)CC(C)CC(=O)O)c2cc(Cl)ccc2n1C (stereo not drawn) [Met a V230 (ω-1)OH, reference compound]

>  <pIC50>
5.80

$$$$
>  <MOLECULE>
C[C@H](CC(=O)O)CC(=O)c1c(CCCCCCc2ccc(F)cc2)n(C)c2ccc(Cl)cc12 [Compound 54]

>  <pIC50>
9.41

$$$$
>  <MOLECULE>
C[C@H](CC(=O)O)CC(=O)c1c(CCCCCCc2ccccc2Cl)n(C)c2ccc(Cl)cc12 [Compound 47]

>  <pIC50>
9.26

$$$$

Lookup result for CC(CC(=O)O)CC(=O)c1c(CCCCC=Cc2ccccc2)n(C)c2ccc(Cl)cc12 (stereo not drawn) [Compound 94] ; measured pIC50: 9.19

Entry CCC(C)CCCc1c(C(=O)CC(C)CC(=O)O)c2cc(Cl)ccc2n1C (stereo not drawn) [Compound V225, reference compound] , pIC50 reported as 7.06

Data point: CC(CC(=O)O)CC(=O)c1c(CCCCCCc2ccc(Cl)cc2)n(C)c2ccc(Cl)cc12 (stereo not drawn) [Compound 23] ; pIC50 = 9.20

Form: molecule = C[C@@H](CC(=O)O)CC(=O)c1c(CCCC/C=C\c2ccccc2)n(C)c2ccc(Cl)cc12 [Compound 96] ; pIC50 = 8.26

CC(CC(=O)O)CC(=O)c1c(CCCc2ccccc2)n(C)c2ccc(Cl)cc12 (stereo not drawn) [Compound 12, reference compound] yielded pIC50 of 6.65

Reported pIC50 of COc1cccc(CCCCCCc2c(C(=O)CC(C)CC(=O)O)c3cc(Cl)ccc3n2C)c1 (racemic) [Compound 22] : 10.07

Entry C[C@@H](CC(=O)O)CC(=O)c1c(CCCC/C=C/c2ccccc2)n(C)c2ccc(Cl)cc12 [Compound 98] , pIC50 reported as 8.96

Lab book: pIC50 of C[C@H](CC(=O)O)CC(=O)c1c(CCCCCCc2cccc(F)c2)n(C)c2ccc(Cl)cc12 (single isomer, unassigned) [Compound 51] noted as 10.43

====

target: OXE receptor (Homo sapiens, UniProt Q8TDS5); construct: Human granulocytes (≥95% neutrophils) are prepared from whole blood; endogenous in cells; host or cells: human granulocytes (≥95% neutrophils) from whole blood; assay: Calcium mobilization in human granulocytes (inhibition of 5-oxo-ETE-induced calcium mobilization); format: cell-based; details: inhibition of calcium mobilization induced by 5-oxo-ETE (10 nM) in human granulocytes; bracketed figure in cell = n; read-out: IC50
Sequence (Q8TDS5 whole entry): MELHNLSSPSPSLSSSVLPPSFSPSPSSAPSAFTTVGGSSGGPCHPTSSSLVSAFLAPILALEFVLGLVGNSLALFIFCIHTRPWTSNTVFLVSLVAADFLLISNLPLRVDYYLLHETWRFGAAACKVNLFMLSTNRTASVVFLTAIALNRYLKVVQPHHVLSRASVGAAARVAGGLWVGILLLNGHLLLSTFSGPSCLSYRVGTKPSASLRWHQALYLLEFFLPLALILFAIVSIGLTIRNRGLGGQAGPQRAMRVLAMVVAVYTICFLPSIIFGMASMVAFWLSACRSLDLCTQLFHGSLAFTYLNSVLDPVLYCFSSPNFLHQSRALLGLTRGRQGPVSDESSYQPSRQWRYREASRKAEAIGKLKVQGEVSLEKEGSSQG
Decide using IC50 alone. Strictly below 0.8 nM: Condition met. Equal to or above 0.8 nM: Condition not met.

>  <COMPOUND>
COc1cccc(CCCCCCc2c(C(=O)C[C@H](C)CC(=O)O)c3cc(Cl)ccc3n2C)c1 (single isomer, unassigned) [Compound 52]

>  <CAT>
Condition met

$$$$

Threshold test, IC50 < 0.8 nM: CC(CC(=O)O)CC(=O)c1c(CCCCCCc2ccccc2F)n(C)c2ccc(Cl)cc12 (stereo not shown) [Compound 18]
Condition met

IC50 under 0.8 nM? Item: C[C@@H](CC(=O)O)CC(=O)c1c(CCCCCCc2ccccc2F)n(C)c2ccc(Cl)cc12 (single isomer, unassigned) [Compound 63]
Condition not met

Given CC(C)CCCCc1c(C(=O)CC(C)CC(=O)O)c2cc(Cl)ccc2n1C (stereo not shown) [Compound V197, reference compound] , is recorded IC50 strictly lower than 0.8 nM?
Condition not met

Does this compound meet the criterion IC50 < 0.8 nM? CCCCCC(O)c1c(C(=O)CC(C)CC(=O)O)c2cc(Cl)ccc2n1C (stereo not shown) [Compound V230M, reference compound]
Condition not met

Strictly below 0.8 nM: is that where IC50 of C[C@H](CC(=O)O)CC(=O)c1c(CCCC/C=C/c2ccccc2)n(C)c2ccc(Cl)cc12 [Compound 97] sits?
Condition met
